Source listed as the CheMixHub drug solubility set.

Assay: xn = mol fraction of the nth substance listed, in the solute-free solvent
Settings: 293.15 K; x2 = 0.3103
readout: solubility (g/100 g solution)
In your answer, state the number alone without any accompanying words.

CC(C)C(=O)Nc1ccc([N+](=O)[O-])c(C(F)(F)F)c1 + CC(C)O + O = 5.84
O=c1cc(CBr)c2ccccc2[nH]1 + CC(C)O + O = 0.0928
Nc1ncc(Br)nc1Br + CC(C)O + O = 0.244
O=C1C=CC(=O)N1c1ccccc1Br + CC(C)O + O = 6.06

Now for the compound whose solubility (g/100 g solution) we want.
Could you tell me which solubility (g/100 g solution) is on file for O=c1cc(CBr)c2ccccc2[nH]1 + CCCO + O ? 0.13

---

Assay: xn = mol fraction of the nth substance listed, in the solute-free solvent
Conditions: 283.15 K; x2 = 0.3698
readout: solubility (g/100 g solution)
In your answer, state the number alone without any accompanying words.

Answered cases to consult:
Nc1cc(-c2ccncc2)c[nH]c1=O + CCO + O = 0.00747
CC(C)C(=O)Nc1ccc([N+](=O)[O-])c(C(F)(F)F)c1 + CCO + O = 2.59
Nc1ncc(Br)nc1Br + CCO + O = 0.296
O=c1cc(CBr)c2ccccc2[nH]1 + CCO + O = 0.0845

Could you tell me which solubility (g/100 g solution) is on file for O=C1C=CC(=O)N1c1ccccc1Br + CCO + O ? 5.25

---

Overview of reported solubility (g/100 g solution) across a group of compounds:
Assay: xn = mol fraction of the nth substance listed, in the solute-free solvent
Settings: 298.15 K; x2 = 0.6101
In your answer, state the number alone without any accompanying words.

Answered cases to consult:
O=c1cc(CBr)c2ccccc2[nH]1 + CCO + O = 0.147
Nc1ncc(Br)nc1Br + CCO + O = 0.644
O=C1C=CC(=O)N1c1ccccc1Br + CCO + O = 11
Nc1cc(-c2ccncc2)c[nH]c1=O + CCO + O = 0.0176

Now for the compound whose solubility (g/100 g solution) we want.
Could you tell me which solubility (g/100 g solution) is on file for CC(C)C(=O)Nc1ccc([N+](=O)[O-])c(C(F)(F)F)c1 + CCO + O ? 16.5

---

Assay: xn = mol fraction of the nth substance listed, in the solute-free solvent
Conditions: 283.15 K; x2 = 0.1436
Overview of reported solubility (g/100 g solution) across a group of compounds:
In your answer, state the number alone without any accompanying words.

Answered cases to consult:
Nc1cc(-c2ccncc2)c[nH]c1=O + CCO + O = 0.00304
O=C1C=CC(=O)N1c1ccccc1Br + CCO + O = 2.09
O=c1cc(CBr)c2ccccc2[nH]1 + CCO + O = 0.042
CC(C)C(=O)Nc1ccc([N+](=O)[O-])c(C(F)(F)F)c1 + CCO + O = 0.0967

Could you tell me which solubility (g/100 g solution) is on file for Nc1ncc(Br)nc1Br + CCO + O ? 0.148

---

Overview of reported solubility (g/100 g solution) across a group of compounds:
Assay: xn = mol fraction of the nth substance listed, in the solute-free solvent
Settings: 293.15 K; x2 = 0.2307
In your answer, state the number alone without any accompanying words.

Answered cases to consult:
CC(C)C(=O)Nc1ccc([N+](=O)[O-])c(C(F)(F)F)c1 + CC(C)O + O = 2.51
O=c1cc(CBr)c2ccccc2[nH]1 + CCCO + O = 0.115
O=c1cc(CBr)c2ccccc2[nH]1 + CC(C)O + O = 0.0834
Nc1ncc(Br)nc1Br + CC(C)O + O = 0.21

Now for the compound whose solubility (g/100 g solution) we want.
Could you tell me which solubility (g/100 g solution) is on file for O=C1C=CC(=O)N1c1ccccc1Br + CC(C)O + O ? 5.21
